B1: PEX5 peptide 238-253 (Peroxisomal targeting signal 1 receptor), 16-mer library wild type / PEX14 Pex14 (PEX14 PEX14, residues 16-84) (parent)
chain 1: AQAEQWAAEFIQQQGT
chain 2: TPGSENVLPREPLIATAVKFLQNSRVRQSPLATRRAFLKKKGLTDEEIDMAFQQSGTAADEPSSLGPAT

- Variants of: B1
- ASSAY_INFO: proteomic peptide phage display deep mutational scan (ProP-PD DMS): M13 P8 16-mer library selected against immobilised GST-tagged bait for four days (rounds), NGS of the eluted pools per day and pseudo-replica
- DETAILS: with PEX14 Pex14 (PEX14 PEX14, residues 16-84); bait immobilised on MaxiSorp plates (10 µg), library pre-cleared on GST, 2 h binding at 4 °C, five washes; one round per day, days 1-4; value from days 2 and 3; keep out of graded; scale: average fractional NGS count over selection days 2 and 3
ASSAY_READOUT: screen value
Form: value (number only, do not type unit).

Below, 10 variants whose answers are already recorded.
>  <MUTANT_NAME>
chain 1 Q14K

>  <screen value>
0

$$$$
>  <MUTANT_NAME>
chain 1 Q5K

>  <screen value>
0

$$$$
>  <MUTANT_NAME>
chain 1 A3Y

>  <screen value>
0.000443

$$$$
>  <MUTANT_NAME>
chain 1 E9A

>  <screen value>
0.00516

$$$$
>  <MUTANT_NAME>
chain 1 G15V

>  <screen value>
0.000135

$$$$
>  <MUTANT_NAME>
chain 1 Q5W

>  <screen value>
0

$$$$
>  <MUTANT_NAME>
chain 1 A3S

>  <screen value>
0.000376

$$$$
>  <MUTANT_NAME>
chain 1 E4W

>  <screen value>
0.00183

$$$$
>  <MUTANT_NAME>
chain 1 A7N

>  <screen value>
0

$$$$
>  <MUTANT_NAME>
chain 1 G15D

>  <screen value>
0.000327

$$$$

Proceeding to the next variant to report its screen value.
Ask: Requested read-out: screen value. Entry: chain 1 Q13S
Result: 0
